# target-under-test: Neurogenic locus notch homolog protein 2 (Homo sapiens) (UniProt Q04721)
# Sequence (Q04721 whole entry, looked up): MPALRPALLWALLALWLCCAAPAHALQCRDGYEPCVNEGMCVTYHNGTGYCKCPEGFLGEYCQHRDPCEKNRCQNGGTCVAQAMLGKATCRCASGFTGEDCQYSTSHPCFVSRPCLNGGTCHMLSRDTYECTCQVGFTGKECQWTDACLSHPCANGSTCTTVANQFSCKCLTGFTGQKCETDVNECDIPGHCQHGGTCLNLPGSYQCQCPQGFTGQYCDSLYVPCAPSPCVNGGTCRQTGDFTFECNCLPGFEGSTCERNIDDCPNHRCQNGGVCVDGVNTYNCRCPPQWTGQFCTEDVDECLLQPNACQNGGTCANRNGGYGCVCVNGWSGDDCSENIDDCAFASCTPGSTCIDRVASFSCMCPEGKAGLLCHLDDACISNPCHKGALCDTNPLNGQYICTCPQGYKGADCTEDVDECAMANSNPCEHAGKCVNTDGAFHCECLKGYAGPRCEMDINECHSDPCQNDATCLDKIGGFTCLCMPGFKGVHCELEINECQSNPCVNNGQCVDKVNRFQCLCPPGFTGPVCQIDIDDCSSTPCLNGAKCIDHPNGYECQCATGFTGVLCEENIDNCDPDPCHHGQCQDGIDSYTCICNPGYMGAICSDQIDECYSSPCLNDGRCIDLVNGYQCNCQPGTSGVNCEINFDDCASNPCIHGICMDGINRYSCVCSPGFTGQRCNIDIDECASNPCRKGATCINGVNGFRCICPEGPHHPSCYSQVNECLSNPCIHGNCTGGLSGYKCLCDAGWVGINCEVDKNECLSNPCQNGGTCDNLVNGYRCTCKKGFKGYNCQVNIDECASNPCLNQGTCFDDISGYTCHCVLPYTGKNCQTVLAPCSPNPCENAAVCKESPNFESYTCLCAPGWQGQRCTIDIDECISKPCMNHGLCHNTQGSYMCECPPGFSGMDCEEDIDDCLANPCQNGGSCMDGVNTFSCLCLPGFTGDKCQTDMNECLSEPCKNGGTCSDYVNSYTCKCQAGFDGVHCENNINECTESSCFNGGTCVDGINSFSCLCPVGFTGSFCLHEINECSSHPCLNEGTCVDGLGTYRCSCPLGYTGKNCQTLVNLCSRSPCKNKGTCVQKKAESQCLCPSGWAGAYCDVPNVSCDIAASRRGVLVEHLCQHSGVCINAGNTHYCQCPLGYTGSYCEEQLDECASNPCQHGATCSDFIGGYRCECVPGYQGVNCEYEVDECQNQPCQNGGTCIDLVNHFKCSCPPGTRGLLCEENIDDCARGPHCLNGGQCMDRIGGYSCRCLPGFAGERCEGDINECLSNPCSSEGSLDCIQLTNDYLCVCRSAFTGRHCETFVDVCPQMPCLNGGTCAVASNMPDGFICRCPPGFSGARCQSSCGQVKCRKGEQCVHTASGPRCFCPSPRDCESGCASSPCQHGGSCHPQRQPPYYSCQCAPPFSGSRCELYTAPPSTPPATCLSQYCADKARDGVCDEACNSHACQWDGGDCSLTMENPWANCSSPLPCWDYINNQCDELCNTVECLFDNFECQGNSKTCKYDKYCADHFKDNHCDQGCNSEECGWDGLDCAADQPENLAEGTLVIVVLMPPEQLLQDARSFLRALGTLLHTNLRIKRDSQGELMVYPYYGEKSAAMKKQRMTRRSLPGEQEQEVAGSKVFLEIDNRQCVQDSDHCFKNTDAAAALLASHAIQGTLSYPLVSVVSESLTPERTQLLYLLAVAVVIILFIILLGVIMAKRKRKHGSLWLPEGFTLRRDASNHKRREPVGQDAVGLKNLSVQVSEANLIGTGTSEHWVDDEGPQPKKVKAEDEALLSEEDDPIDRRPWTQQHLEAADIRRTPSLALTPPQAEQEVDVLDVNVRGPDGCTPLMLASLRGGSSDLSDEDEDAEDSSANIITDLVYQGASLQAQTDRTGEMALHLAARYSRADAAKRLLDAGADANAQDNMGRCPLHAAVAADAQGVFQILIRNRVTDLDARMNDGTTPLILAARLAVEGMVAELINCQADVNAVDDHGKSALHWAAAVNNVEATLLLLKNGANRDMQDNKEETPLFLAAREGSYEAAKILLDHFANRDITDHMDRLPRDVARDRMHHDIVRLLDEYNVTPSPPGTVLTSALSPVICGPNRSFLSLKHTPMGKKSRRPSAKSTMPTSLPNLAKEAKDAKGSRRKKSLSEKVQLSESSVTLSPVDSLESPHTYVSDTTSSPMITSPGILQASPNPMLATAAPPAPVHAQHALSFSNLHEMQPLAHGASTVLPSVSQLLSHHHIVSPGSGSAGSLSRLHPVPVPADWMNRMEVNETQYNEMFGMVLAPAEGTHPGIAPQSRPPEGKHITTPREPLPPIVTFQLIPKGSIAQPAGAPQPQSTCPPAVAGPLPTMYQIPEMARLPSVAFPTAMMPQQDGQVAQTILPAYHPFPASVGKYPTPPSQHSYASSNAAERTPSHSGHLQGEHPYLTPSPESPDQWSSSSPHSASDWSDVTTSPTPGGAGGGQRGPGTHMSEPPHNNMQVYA
# assay-info: small molecules binding Notch2 protein – biochemical, small-molecule microarray, 635 nm fluorescence, stem cell growth factors, primary screen (AID 1073)
# condition-parameters: higher = more signal
assay-endpoint: composite z-score

compound=C=CCOC(=O)[C@H]1[C@@H]2C(=O)O[C@@H](c3ccccc3)[C@@H](c3ccccc3)N2[C@@H](c2ccc(OCCOC(=O)[C@@H]3C[C@@H]4C(=O)NCC(=O)N4[C@@H]3c3ccc(O)cc3)cc2)[C@]12C(=O)Nc1ccc(I)cc12 assay_value=0.93

Request: Using the record for COc1ccc([Si](C)(C)[C@@H]2[C@@H](CCO)O[C@]3(C(=O)N(Cc4ccc(N5C(=O)c6cccc7cccc5c67)cc4)c4ccccc43)[C@H]2C)cc1 , report its composite z-score.
Result: -0.35

Request: Could you tell me which composite z-score is on file for O=c1cccc(-c2ccc3ccccc3c2)o1 ?
Result: -0.383

====

# System: Human papillomavirus type 1a E7 protein (residues 1-88)
# assay-info: HPV1a E7 small-molecule binders, primary screen, biochemical, small-molecule microarray, residues 1-88, 635 nm (AID 1129)
# condition-parameters: small-molecule microarray binding, fluorescence 635 nm; higher = more signal
assay-endpoint: composite z-score
API note: the answer field is a bare number with no unit suffix.

The examples below pair each entry with its known result.
substance_smiles=COc1cc(CO)cc(I)c1O[C@H]1C=C(C(=O)NCCO)C[C@@H](N(CCc2cccc(F)c2)C(=O)CCC2CCCC2)[C@@H]1O assay_value=1.19
substance_smiles=Cc1ccc([C@H]2C(C(=O)O)=C[C@@H](C(C)C)N2S(=O)(=O)c2ccc(C)cc2)cc1 assay_value=1.29
substance_smiles=C=C(CCCC)/C(=C/C[C@H](OC(C)=O)c1ccc(CO)o1)c1cc(C(=O)OC)ccc1OC assay_value=0.596

Consider now this further molecule.
Request: Param item = CCCNC(=O)[C@@]1(C)c2ccccc2C(=O)N(Cc2cc(C(F)(F)F)cc(C(F)(F)F)c2)[C@H]1c1ccc(CO)cc1 ; retrieve measured composite z-score.
Result: 0.903

====

# assay-info: resazurin metabolic signal in A549 cells – cell-based, resazurin fluorescence, 24 h, PK04 Diversity Set, profiling panel (AID 1171); note: test concentration not given here
# condition-parameters: A549 viability, higher = more signal, called active from +8 up or from −8 down
Rule for this label: t means z-score is less than 0.4; f means z-score is at least 0.4.

substance_smiles=C=CCOC(=O)[C@@H]1[C@H]2C(=O)O[C@H](c3ccccc3)[C@H](c3ccccc3)N2[C@H](c2ccc(OCCOC(=O)[C@H]3C[C@H]4C(=O)N[C@@H](CC(C)C)C(=O)N4[C@H]3c3cccc(OCCO)c3)cc2)[C@@]12C(=O)Nc1ccc(I)cc12 class_assignment=t
substance_smiles=Cc1ccc(N2C(=O)c3ccccc3[C@](C)(C(=O)NCCN3CCOCC3)[C@@H]2c2ccc(CO)cc2)nc1 class_assignment=f
substance_smiles=COCCOC(=O)N1C(=O)[C@@]2(c3cc(C#CC4=CCCCC4)ccc31)[C@H](C(=O)N1CCN(c3ncccn3)CC1)[C@H]1C(=O)O[C@H](c3ccccc3)[C@H](c3ccccc3)N1[C@@H]2c1ccc(OCCO)cc1 class_assignment=f
substance_smiles=O=C(NCc1ccccc1)[C@@H]1c2ccccc2C(=O)N(C2CCCCC2)[C@H]1c1ccc(CO)cc1 class_assignment=t

Request: Does the reported z-score of the following compound sit strictly below 0.4? C=CC[C@@]1(C(=O)NCCN2CCOCC2)N=C(c2ccc(OCCCO)cc2)O[C@@H]1c1ccccc1CN=[N+]=[N-]
Result: t
